Test: PSAC antagonists in infected red cells, primary screen, cell-based, P. falciparum Indochina, OD700, 2 h (AID 1155);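 further: lysis reports solute entry through the parasite surface anion channel PSAC; channel blockers reduce lysis of infected cells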
Conditions: P. falciparum Indochina infected erythrocytes, osmotic lysis OD700; higher = more signal, called active from +8 up or from −8 down
Given measured z-score, output 1.0 if it is greater than or equal to 2 and 0.0 if not.

Please tell me: is the molecule `COc1ccc([Si](C)(C)[C@H]2[C@H](CCO)O[C@@]3(C(=O)N(Cc4cccc(N5C(=O)COc6ccccc65)c4)c4ccccc43)[C@@H]2C)cc1` at or over 2 in terms of z-score? 1.0

Entry `COCCOC(=O)N1C(=O)[C@@]2(c3cc(C#CC4=CCCCC4)ccc31)[C@H](c1ccccc1OCCO)N1[C@H](c3ccccc3)[C@H](c3ccccc3)OC(=O)[C@H]1[C@@H]2C(=O)N1CCCCCCC1` please 0.0

Again, but for `C=C(CCCC)/C(=C/C[C@@H](OC(=O)c1ccncc1)c1ccccc1OCCO)c1cnc2ccccc2c1` 1.0

Please give the result for `COc1ccc(NC(=O)O[C@H]2[C@H](OC(=O)Nc3ccccc3)[C@H](OC(=O)Nc3ccccc3)[C@@H](OC)O[C@@H]2CO)cc1` too. 0.0

Do the same for `COCCOC(=O)N1C(=O)[C@@]2(c3cc(C#CC4=CCCCC4)ccc31)[C@H](c1ccc(OCCO)cc1)N1[C@H](c3ccccc3)[C@H](c3ccccc3)OC(=O)[C@H]1[C@@H]2C(=O)N1CCN(c2ncccn2)CC1` please 0.0

Same again, this time with `C=C(C)c1cc2c(c(CCCCCC)n1)[Si](C(C)C)(C(C)C)OC2` 0.0

* * *

Experiment: small-molecule microarray binders of probe aDKK1, primary screen, biochemical, biotinylated probe, 635/667 nm fluorescence (AID 1099);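 further: score merges 667nm spot fluorescence with signal to noise across triplicate slides; reference of the scale not given here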
Settings: higher = more signal
Assign composite z-score to each entry below.
Simply state the number, no unit and no words.

# input compound: `COC(=O)[C@@]1(Cc2ccc(OC)cc2)[C@H]2c3cc(C(=O)N4CCCC4)n(Cc4cccc5ccccc45)c3C[C@H]2CN1C(=O)c1ccccc1` ; wanted: its composite z-score 0.741

Also `COc1ccc([Si](C)(C)[C@@H]2[C@@H](CC(=O)N3Cc4ccccc4C[C@H]3CO)O[C@]3(C(=O)N(C)c4ccccc43)[C@H]2C)cc1` ? 0.405

Now the compound `COc1ccc(C#Cc2ccc3c(c2)[C@]2(C(=O)N3)[C@H](c3ccc(O)cc3)N3[C@H](c4ccccc4)[C@H](c4ccccc4)OC(=O)[C@H]3[C@@H]2C(=O)O)cc1` -0.901

Check `CCOC(=O)C[C@H]1[C@H](OC(=O)Cc2ccc3c(c2)OCO3)[C@@H](NC(=O)CC(C)C)c2cc(OCCCO)ccc2N1C(=O)Cc1ccc(OC)cc1` too. -0.283

Subsequent entry: `CC(C)[Si](C#C[Si](C(C)C)(C(C)C)C(C)C)(O[C@H](C)c1cn([C@H](CO)Cc2ccccc2)nn1)C(C)C` -0.229

Entry to check: `Cc1ccc(S[C@]2(C(=O)NCCCN(C)C)CC(=O)N(C3CCCCC3)[C@@H]2c2ccc(CO)cc2)cc1` 0.348

* * *

Consider the following compounds; for each one, report its z-score.
Assay: modulators of HCV replicon luciferase signal, primary screen, HCV replication inhibitor project, Huh7 cells, luciferase reporter (AID 1109);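 further: huh7 hepatoma cells harbouring a luciferase neomycin HCV replicon reporter; luciferase luminescence as measure of HCV replicon replication; test concentration not given here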
Conditions: 48 h, higher = more signal
Number, no unit, nothing else.

Can you look up the measured z-score of `COCCOC(=O)N1C(=O)[C@@]2(c3cc(C#CC4=CCCCC4)ccc31)[C@H](C(=O)N1CCCCCCC1)[C@H]1C(=O)O[C@H](c3ccccc3)[C@H](c3ccccc3)N1[C@@H]2c1ccc(O)cc1` for me? -1.35

Then CC(C)(C)N1CC=CC23O[C@@H]4C=CCOC(=O)[C@@H]4[C@H]2C(=O)N(CCCCCCO)[C@@H]3C1=O (some centres undefined) ? 0.397

Repeat for the following compound: O=C1OCC=C[C@H]2OC34C=CCN(Cn5nnc6ccccc65)C(=O)[C@H]3N(CCCO)C(=O)[C@@H]4[C@@H]12 (some centres undefined) 0.424

Also need CCC(CC)C(O)C1C=CC2C(=O)N(c3ccccc3)C(=O)C2N1Nc1ccc(C(C)C)cc1 (centres undefined) , thanks. -0.652
